tested on: ZFP8196 linker 1f center linker F2-F3 TGEKP replaced by TYPRPIAAKP (artificial); experiment: ELONA; conditions: normalized ELISA score
I'd appreciate it if you could supply binding signal values for the items below.
Format: numeric value only, no unit, no commentary.

Answer briefly: binding signal recorded on ZFP8196 linker 1f center linker F2-F3 TGEKP replaced by TYPRPIAAKP (artificial) for TTAGATAAACTGTCCAAAAGGCTATC (double strand) [8196 target gap TC]
0.01

Answer briefly: binding signal recorded on ZFP8196 linker 1f center linker F2-F3 TGEKP replaced by TYPRPIAAKP (artificial) for TTAGATAAACTGCAAAAGGCTATC (double strand) [8196 target 0-bp gap]
0.01

Answer briefly: binding signal recorded on ZFP8196 linker 1f center linker F2-F3 TGEKP replaced by TYPRPIAAKP (artificial) for TTAGATAAACTGTCAAAAGGCTATC (double strand) [8196 target gap T]
0.64

Answer briefly: binding signal recorded on ZFP8196 linker 1f center linker F2-F3 TGEKP replaced by TYPRPIAAKP (artificial) for TTAGATAAACTGCCAAAAGGCTATC (double strand) [8196 target gap C]
0.14

Answer briefly: binding signal recorded on ZFP8196 linker 1f center linker F2-F3 TGEKP replaced by TYPRPIAAKP (artificial) for TTAGATAAACTGACAAAAGGCTATC (double strand) [8196 target gap A]
0.41

Answer briefly: binding signal recorded on ZFP8196 linker 1f center linker F2-F3 TGEKP replaced by TYPRPIAAKP (artificial) for TTAGATAAACTGGCAAAAGGCTATC (double strand) [8196 target gap G]
0.65

The measurements presented in this section are drawn from patent US20110287512.
